# system_under_test: HLA-DRB1*0401 (Homo sapiens (Human), UniProt P01903+P01911, A100K/A169T/DEL228-266/F76Y/I96L/K127E/L162R/M171V/N62H/P40V/Q125Y/R42H/S133A/S149N/S66Y/V115G/V209L/W38E)
# assay_text: HLA-DR4 HTRF assay
# Assay type: binding
# condition_label: inhibition of loading of Alexa Fluor 647-labeled Cit-CII peptide onto HLA-DR4 (CLIP cleaved)
pIC50: −log10 of the molar value.
The threshold is inclusive: pIC50 of exactly 6 counts as true; values below receive false.

Example entries and their recorded answers appear below.
INSERT INTO results (molecule, label) VALUES
  ('COc1ccc([C@H](Oc2ccc3c(c2)OCCC3=O)c2ccncc2)cc1 (single isomer, unassigned) [Example 12b]', 'false'),
  ('Cc1c(O[C@@H](c2ccc(C(N)=O)cc2)c2cccc(F)c2)ccc2c1OCCC2=O (single isomer, unassigned) [Example 67b]', 'false'),
  ('O=C1CCOc2cc(O[C@H](c3ccncc3)c3cccc(F)c3)ccc21 (single isomer, unassigned) [Example 2a]', 'false');

Shifting focus to the molecule that follows.
Task item: Does N#Cc1ccc([C@H](Oc2ccc3c(c2)OCCC3=O)c2ccncc2)c2ccccc12 (single isomer, unassigned) [Example 37a] have a reported pIC50 of at least 6?
Reply: false

* * *

# system_under_test: HLA-DRB1*0401 (Homo sapiens (Human), UniProt P01903+P01911, A100K/A169T/DEL228-266/F76Y/I96L/K127E/L162R/M171V/N62H/P40V/Q125Y/R42H/S133A/S149N/S66Y/V115G/V209L/W38E)
# assay_text: HLA-DR4 HTRF assay
# condition_label: inhibition of loading of Alexa Fluor 647-labeled Cit-CII peptide onto HLA-DR4 (CLIP cleaved)
measure: IC50 (nM)
Quick reminder: number only, in nM, skip the unit.

INSERT INTO assay_data (molecule, unit_name, reported_value) VALUES
  ('COc1cccc([C@@H](Oc2ccc3c(c2)OCCC3=O)c2ccncc2)c1 (single isomer, unassigned) [Example 13b]', 'nM', 1400);

Let's switch to this molecule now.
So, CCOc1cc(C(N)=O)ccc1[C@H](Oc1ccc2c(c1C)OCCC2=O)c1ccncc1 (single isomer, unassigned) [Example 83a] ? Its IC50 was 950

* * *

# system_under_test: HLA-DRB1*0401 (Homo sapiens (Human), UniProt P01903+P01911, A100K/A169T/DEL228-266/F76Y/I96L/K127E/L162R/M171V/N62H/P40V/Q125Y/R42H/S133A/S149N/S66Y/V115G/V209L/W38E)
# assay_text: HLA-DR4 HTRF assay
# Format: binding
# condition_label: inhibition of loading of Alexa Fluor 647-labeled Cit-CII peptide onto HLA-DR4 (CLIP cleaved)
pIC50: −log10 of the molar value.
The threshold is inclusive: pIC50 of exactly 5 counts as Satisfied; values below receive Not satisfied.

INSERT INTO results (compound, label) VALUES
  ('Cc1c(O[C@@H](c2ccc(C(N)=O)cc2)c2cccc[n+]2[O-])ccc2c1OCCC2=O (single isomer, unassigned) [Example 65b]', 'Not satisfied');

Task item: Does O=C1CCOc2cc(O[C@H](c3ccncc3)C3CCCCC3)ccc21 (single isomer, unassigned) [Example 38b] have a reported pIC50 of at least 5?
Reply: Satisfied

Task item: Does Cc1c(O[C@H](c2ccncc2)c2ccc(C(N)=O)c(F)c2)c(F)cc2c1OCCC2=O (single isomer, unassigned) [Example 95a] have a reported pIC50 of at least 5?
Reply: Satisfied

Task item: Does COc1cc(O[C@@H](c2ccncc2)c2ccc(C(N)=O)cc2)cc2c1C(=O)CCO2 (single isomer, unassigned) [Example 77a] have a reported pIC50 of at least 5?
Reply: Satisfied

Task item: Does NC(=O)c1ccc([C@@H](Oc2ccc3c(c2)OCCC3=O)c2ccnc(-c3ccccc3)c2)cc1 (single isomer, unassigned) [Example 26a] have a reported pIC50 of at least 5?
Reply: Not satisfied
